Values compiled from PubChem BioAssay (NCI).

Test system: SNB-19 CNS
Experiment: NCI tumour cell line growth inhibition, 48 h
Entries annotated with measured TGI
endpoint_label: TGI

* COC(=O)C1=C(C(=O)OC)C2OC1C1C2C2(C)C(C)=C(C)C1(C)S2=O (stereo not given) | 66.1 µM
* COc1ccc(/C(=C/n2ccnc2)C(=O)c2ccc(OC)c(OC)c2)cc1 | > 100 µM
* COC(=O)c1cc(CC(C)C)c2c(c1)[nH]c1ccccc12 | > 100 µM
* CC(C)(C)C(=O)C(CC(=O)c1ccccc1)C(=O)C(C)(C)C | > 100 µM
* CCOC(=O)C1=C(C)N(c2ccccc2)C2=C(C(=O)N(c3ccccc3)C2c2ccccc2)C1c1ccccc1 (stereo not given) | > 100 µM
* Cc1nn(-c2ccc(S(=O)(=O)[O-])cc2)c([O-])c1N=[N+](C)c1ccc(-c2ccc(N=Nc3ccc4c(S(=O)(=O)[O-])cc(S(=O)(=O)[O-])c(N)c4c3[O-])c([O-])c2)cc1[O-].[Cu+2].[Cu+2].[Na+] | > 100 µM
* COc1ccc(-c2c(C#N)c(S)n(C3OC(COC(C)=O)C(OC(C)=O)C(OC(C)=O)C3OC(C)=O)c(=O)c2C#N)cc1 (stereo not given) | > 100 µM
* COc1ncc(C=C(C#N)C#N)c(OC)n1 | > 100 µM
* CC(=O)C(CN1CCCCC1)C(c1ccccc1)c1c(O)c2ccccc2oc1=O (stereo not given) | > 100 µM
* COc1cc(C(=O)NC2c3ccccc3-c3ccccc32)c(N)cc1OCc1ccccc1 | 58 µM
* O=C1NC(c2ccc(O)cc2)C2CCC1C2 (stereo not given) | > 100 µM
* Clc1cc(N/N=C(/c2ccccc2)c2ncccn2)ncn1 | > 100 µM
* COc1ccc(N2C(=O)C3c4[nH]c5ccc([N+](=O)[O-])cc5c4C4CCC(C(C)(C)C)CC4C3C2=O)cc1 (stereo not given) | > 100 µM
* COc1cc(-n2cc(-c3ccc(Cl)c(Cl)c3)nc2SCc2ccccc2)cc(OC)c1OC | > 100 µM
* COC(=O)C(C#N)=C1c2ccccc2Oc2ccccc21 | > 100 µM
* COc1ccc(C(=S)N2CCN(c3cccc(Cl)c3)CC2)cc1 | > 100 µM
* N#CC(=C1SCS1)[N+](=O)[O-] | 83.5 µM
* O=C1CC(=O)N(c2ccccc2)N1/C(=C/c1ccccc1)c1ccccc1 | 43.6 µM
* N#CCCN(c1ccc(C=Nc2cccc([N+](=O)[O-])c2)cc1)S(=O)(=O)c1ccccc1 | > 100 µM
* C=CC1=CSNN1 | > 100 µM
